- Target Entity: 5-hydroxytryptamine receptor 2A (Homo sapiens)
- Experimental Setup: Compound concentration 10 µM; call rule not given here
Would you mind answering with one of these outcomes? T for active, F for inactive

Check out these entries, answers already filled in.
- Smi: "CCCCN(CC)c1nc(C)nc2c1c(C)cn2-c1c(C)cc(C)cc1C"
  Assigned Category: "F"
- Smi: "CCOC(=O)c1cc(C#N)c(N2CCC(C(=O)NS(=O)(=O)Cc3ccccc3)CC2)nc1C"
  Assigned Category: "F"
- Smi: "C[C@]1(C(=O)N(CCCC(=O)O)Cc2cccc(Cl)c2)CCN1C(=O)c1csc2ccccc12"
  Assigned Category: "F"

## Task Test call for this molecule, please: COc1ccc(NC(=O)c2ccc(-c3ccc(-c4noc(C)n4)cc3C)cc2)cc1OCCN(C)C
## Result T

## Task Test call for this molecule, please: OC1(c2ccc(Cl)cc2)CCN(Cc2c[nH]c3ccccc23)CC1
## Result T

----------
- Target Entity: Histamine H1 receptor (Homo sapiens)
- Experimental Setup: Compound concentration 10 µM
- Description: PDSP Primary Binding target: HRH1 - Compounds are tested at 10 uM concentration, plate are incubated at room temperature in the dark for 90 minutes. Reaction are stopped by vacuum filtration onto 0.3% polyethyleneimine soaked filter mats using Filtermate harvester. Scintilation cocktail is then melted onto microwave-dried filters on a hot plate and the radio activity is counted in Microbia counter.
Measured inhibition, listed per entry.
Provide the reading as a plain figure in %.

Some compounds with known inhibition results, for comparison:
- Compound: "CCC(=O)NCC[C@@H]1CCc2ccc3c(c21)CCO3"
  Target Entity: "Histamine H1 receptor (Homo sapiens)"
  Measurement: -1.68
- Compound: "COc1ccc(C2(O)OC(=O)C(c3ccc4c(c3)OCO4)=C2Cc2cc(OC)c(OC)c(OC)c2)cc1 (stereo not given)"
  Target Entity: "Histamine H1 receptor (Homo sapiens)"
  Measurement: 11.8
- Compound: "N#Cc1c[nH]c2c(C(=O)N3CCN(CCc4ccc(F)cc4)CC3)cccc12"
  Target Entity: "Histamine H1 receptor (Homo sapiens)"
  Measurement: 46.1

## Task Which inhibition reading was recorded for the compound CN1CCN(c2ccc(Nc3c4ccccc4nc4ccccc34)cc2)CC1 ?
## Result 54.4

## Task Which inhibition reading was recorded for the compound CCOC(=O)c1c(C)[nH]c2ccc3c(c12)CN1CCc2cc(OC)ccc2C1O3 (stereo not given) ?
## Result 24.9

----------
- Target Entity: Sodium-dependent noradrenaline transporter (Homo sapiens) (UniProt P23975)
- Sequence (P23975 whole entry): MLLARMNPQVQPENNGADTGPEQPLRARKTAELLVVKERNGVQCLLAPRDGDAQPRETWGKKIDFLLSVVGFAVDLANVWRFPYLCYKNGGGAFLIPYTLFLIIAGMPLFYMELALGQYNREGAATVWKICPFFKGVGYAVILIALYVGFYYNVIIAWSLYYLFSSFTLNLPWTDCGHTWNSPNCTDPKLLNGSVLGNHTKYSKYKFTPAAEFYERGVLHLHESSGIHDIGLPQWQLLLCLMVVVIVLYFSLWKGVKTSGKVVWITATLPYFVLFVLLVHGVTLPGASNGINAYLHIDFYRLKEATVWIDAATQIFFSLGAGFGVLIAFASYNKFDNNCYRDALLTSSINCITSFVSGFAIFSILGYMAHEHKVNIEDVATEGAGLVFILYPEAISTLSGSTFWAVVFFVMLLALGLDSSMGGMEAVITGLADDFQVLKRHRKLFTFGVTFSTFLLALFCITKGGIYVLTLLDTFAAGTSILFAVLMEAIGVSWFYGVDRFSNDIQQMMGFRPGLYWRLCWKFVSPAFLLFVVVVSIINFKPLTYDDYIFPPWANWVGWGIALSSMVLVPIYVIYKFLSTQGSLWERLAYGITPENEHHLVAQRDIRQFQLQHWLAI
- Experimental Setup: Compound concentration 10 µM; call rule not given here
Would you mind answering with one of these outcomes? active, inactive

- Compound: "CCN(CC)CCCCC1CCN(CC(=O)N2c3ccccc3C(=O)Nc3cccnc32)CC1"
  Assigned Category: "inactive"
- Compound: "Cc1c(P(=S)(c2ccccc2)c2ccccc2)n2ccccc2[n+]1C/C=C/c1ccccc1"
  Assigned Category: "active"
- Compound: "CNC[C@H](O)c1cccc(O)c1"
  Assigned Category: "inactive"
- Compound: "CCc1nn2c(C)cc(C)nc2c1Cc1ccc(-c2nnc(C3CCNCC3)o2)cc1"
  Assigned Category: "inactive"

## Task Test call for this compound, please: Cc1ccccc1C(=O)Nc1ccc(C(=O)N2CCCC(O)c3cc(Cl)ccc32)c(C)c1 (stereo not given)
## Result inactive

## Task Test call for this compound, please: Cc1cc([C@@H](C)Nc2cccc(-c3cc(C)c(C(=O)N[C@@H](C)C(=O)O)c(C)c3)c2)ccc1Cl
## Result inactive

## Task Test call for this compound, please: O=c1ccn([C@@H]2O[C@H](COP(=O)(O)OP(=O)(O)O)[C@@H](O)[C@H]2O)c(=O)[nH]1
## Result inactive

## Task Test call for this compound, please: CC(C)NCC(O)c1ccc(N)c(C#N)c1 (stereo not given)
## Result inactive

## Task Test call for this compound, please: NC(=O)[C@@H]1CCCN1C(=O)[C@H](Cc1c[nH]cn1)NC(=O)[C@@H]1CCC(=O)N1
## Result inactive

## Task Test call for this compound, please: COc1ccc(OC(F)(F)F)cc1CN[C@H]1CCCN[C@H]1c1ccccc1
## Result inactive

----------
Measured inhibition, listed per entry.
- Target Entity: UniProt P35462
- Sequence (P35462 whole entry): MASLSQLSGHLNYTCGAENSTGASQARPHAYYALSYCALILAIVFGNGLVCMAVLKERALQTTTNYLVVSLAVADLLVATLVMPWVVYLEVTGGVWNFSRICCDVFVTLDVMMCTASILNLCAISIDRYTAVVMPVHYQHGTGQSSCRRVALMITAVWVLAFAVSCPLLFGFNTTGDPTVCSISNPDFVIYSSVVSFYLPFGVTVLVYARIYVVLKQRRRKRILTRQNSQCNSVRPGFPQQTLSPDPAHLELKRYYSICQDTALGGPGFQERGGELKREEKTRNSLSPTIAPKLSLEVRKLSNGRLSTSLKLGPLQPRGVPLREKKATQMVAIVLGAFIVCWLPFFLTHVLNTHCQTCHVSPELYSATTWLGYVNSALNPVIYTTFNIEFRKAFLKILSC
- Experimental Setup: Compound concentration 10 µM
- Description: PDSP Primary Binding target: DRD3 - Compounds are tested at 10 uM concentration, plate are incubated at room temperature in the dark for 90 minutes. Reaction are stopped by vacuum filtration onto 0.3% polyethyleneimine soaked filter mats using Filtermate harvester. Scintilation cocktail is then melted onto microwave-dried filters on a hot plate and the radio activity is counted in Microbia counter.
Provide the reading as a plain figure in %.

- Compound: "Cc1cc(C)cc(-c2cnc3cc(Cl)c(-c4cccc(O)c4)cc3c2OCCCN)c1"
  Assay Readout: "inhibition"
  Measurement: 95.9
- Compound: "C[C@@H](NCCCc1cccc(C(F)(F)F)c1)c1cccc2ccccc12"
  Assay Readout: "inhibition"
  Measurement: 94.4
- Compound: "C[C@@H](N)Cc1c[nH]cn1"
  Assay Readout: "inhibition"
  Measurement: 8.41
- Compound: "C[N+]1(C)[C@@H]2C[C@@H](OC(=O)C(O)(c3cccs3)c3cccs3)C[C@H]1[C@@H]1O[C@@H]12"
  Assay Readout: "inhibition"
  Measurement: 24

## Task Which inhibition reading was recorded for the compound CCCCN(CCCC)C(=O)CN1C[C@@H](c2ccc3c(c2)OCO3)[C@H](C(=O)O)[C@H]1c1ccc(OC)cc1 ?
## Result 28.4

## Task Which inhibition reading was recorded for the compound NCCc1c[nH]c2ccc(C(N)=O)cc12 ?
## Result 7.17

## Task Which inhibition reading was recorded for the compound OC[C@H]1O[C@@H](n2cnc3c(NC4CCCC4)ncnc32)[C@H](O)[C@@H]1O ?
## Result 7.26

## Task Which inhibition reading was recorded for the compound Cc1nnn(-c2ccc(-c3ccc(C4(C(=O)O)CC4)cc3)cc2)c1NC(=O)O[C@H](C)c1ccccc1 ?
## Result 34.8

## Task Which inhibition reading was recorded for the compound C[C@H](Cc1cc2c(c(C(N)=O)c1)N(CCCO)CC2)NCCOc1ccccc1OCC(F)(F)F ?
## Result 94.1

----------
- Target Entity: 5-hydroxytryptamine receptor 1E (Homo sapiens)
- Experimental Setup: Compound concentration 10 µM; call rule not given here
Would you mind answering with one of these outcomes? T for active, F for inactive

Check out these entries, answers already filled in.
- Compound: "CCCCCNC(=N)N/N=C/c1c[nH]c2ccc(OC)cc12"
  Assigned Category: "F"
- Compound: "CCCCCCCCCCCCC/C=C/[C@@H](O)[C@@H](N)COP(=O)(O)O"
  Assigned Category: "F"
- Compound: "CC(C)Oc1ccccc1C(=O)Nc1ccccc1C(=O)Nc1cccc(S(=O)(=O)C(F)(F)F)c1"
  Assigned Category: "F"
- Compound: "N#Cc1cccc(C(=O)Nc2cc(-c3ccccc3)nn2-c2ccccc2)c1"
  Assigned Category: "F"
- Compound: "CN1C2CCC1CC(OC(c1ccc(F)cc1)c1ccc(F)cc1)C2 (stereo unspecified)"
  Assigned Category: "F"

## Task Test call for this compound, please: CCCn1c(=O)c2[nH]c(-c3cnn(Cc4cccc(C(F)(F)F)c4)c3)nc2n(CC)c1=O
## Result F

## Task Test call for this compound, please: CCCn1c(=O)c2nc(C34CC5CC(CC3C5)C4)[nH]c2n(CCC)c1=O
## Result F

## Task Test call for this compound, please: Cc1c(F)cccc1NC(=O)Nc1ccc(Cl)c(S(=O)(=O)[C@H]2CCCNC2)c1O
## Result F

## Task Test call for this compound, please: O=C(c1cc2c(cc1F)OC(c1ccc(F)cc1)(c1ccc(Cl)cc1Cl)O2)N1CCOCC1 (stereo unspecified)
## Result F

## Task Test call for this compound, please: CN1CCC(C(=O)c2cccc(NC(=O)c3c(F)cc(F)cc3F)n2)CC1
## Result T

## Task Test call for this compound, please: CC(C)NCC(O)c1ccc(N)c(C#N)c1 (stereo unspecified)
## Result F

## Task Test call for this compound, please: CN1C(=O)[C@@H](NC(=O)c2cc3ccccc3[nH]2)N=C(c2ccccc2)c2ccccc21
## Result F

## Task Test call for this compound, please: OC[C@H]1O[C@@H](n2cnc3c(NC4CCCC4)ncnc32)[C@H](O)[C@@H]1O
## Result F

----------
- Target Entity: 5-hydroxytryptamine receptor 1A (Homo sapiens)
- Experimental Setup: Compound concentration 10 µM; call rule not given here
Would you mind answering with one of these outcomes? T for active, F for inactive

- Compound: "Cc1csc(NC(=O)c2cc(F)cc(Oc3cncnc3)c2)n1"
  Target Entity: "5-hydroxytryptamine receptor 1A (Homo sapiens)"
  Assigned Category: "F"

From here, focus on the item given below.
## Task Test call for this compound, please: CC(C)(N)C(=O)N[C@H](COCc1ccccc1)C(=O)N1CCC2(CC1)CN(S(C)(=O)=O)c1ccccc12
## Result F

----------
Measured inhibition, listed per entry.
- Target Entity: Alpha-2B adrenergic receptor (Homo sapiens) (UniProt P18089)
- Sequence (P18089 whole entry): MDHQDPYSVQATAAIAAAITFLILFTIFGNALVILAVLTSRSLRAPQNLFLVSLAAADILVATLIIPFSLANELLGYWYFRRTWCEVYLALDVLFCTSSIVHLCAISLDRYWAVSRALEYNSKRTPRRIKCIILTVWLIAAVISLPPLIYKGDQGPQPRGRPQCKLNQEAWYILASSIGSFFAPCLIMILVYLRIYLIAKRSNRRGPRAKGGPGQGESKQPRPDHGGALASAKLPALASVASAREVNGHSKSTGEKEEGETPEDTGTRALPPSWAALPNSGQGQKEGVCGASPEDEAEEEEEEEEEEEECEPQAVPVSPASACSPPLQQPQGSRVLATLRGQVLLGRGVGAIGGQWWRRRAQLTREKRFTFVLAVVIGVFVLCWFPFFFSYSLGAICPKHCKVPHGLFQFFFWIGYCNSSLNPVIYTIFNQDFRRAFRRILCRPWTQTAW
- Experimental Setup: Compound concentration 10 µM
- Description: PDSP Primary Binding target: ADRA2B - Compounds are tested at 10 uM concentration, plate are incubated at room temperature in the dark for 90 minutes. Reaction are stopped by vacuum filtration onto 0.3% polyethyleneimine soaked filter mats using Filtermate harvester. Scintilation cocktail is then melted onto microwave-dried filters on a hot plate and the radio activity is counted in Microbia counter.
Provide the reading as a plain figure in %.

Some compounds with known inhibition results, for comparison:
- Smi: "Cc1cc(NC(=O)NCCN2CCC(O)(Cc3ccccc3)CC2)c2ccccc2n1"
  Target Entity: "Alpha-2B adrenergic receptor (Homo sapiens) (UniProt P18089)"
  Value Unit: "%"
  inhibition: 29.6
- Smi: "O=c1ccc2ccc(OCCCCN3CCN(c4cccc5sccc45)CC3)cc2[nH]1"
  Target Entity: "Alpha-2B adrenergic receptor (Homo sapiens) (UniProt P18089)"
  Value Unit: "%"
  inhibition: 94.3
- Smi: "Cc1nnn(-c2ccc(-c3ccc(C4(C(=O)O)CC4)cc3)cc2)c1NC(=O)O[C@H](C)c1ccccc1"
  Target Entity: "Alpha-2B adrenergic receptor (Homo sapiens) (UniProt P18089)"
  Value Unit: "%"
  inhibition: 4.78
- Smi: "Cc1cn2cc(CC(=O)N3CCC4(CC3)CN(Cc3ccc(-n5nccn5)cc3Cl)C4)nc2s1"
  Target Entity: "Alpha-2B adrenergic receptor (Homo sapiens) (UniProt P18089)"
  Value Unit: "%"
  inhibition: 11
- Smi: "Cc1c(F)cccc1NC(=O)Nc1ccc(Cl)c(S(=O)(=O)[C@H]2CCCNC2)c1O"
  Target Entity: "Alpha-2B adrenergic receptor (Homo sapiens) (UniProt P18089)"
  Value Unit: "%"
  inhibition: 3.18

## Task For the record C=CCN1C[C@H](C)N([C@H](c2ccc(C(=O)N(CC)CC)cc2)c2cccc(O)c2)C[C@H]1C , what value of inhibition is listed for Alpha-2B adrenergic receptor (Homo sapiens) (UniProt P18089)?
## Result 9.01

## Task For the record CCCCCNC(=N)N/N=C/c1c[nH]c2ccc(OC)cc12 , what value of inhibition is listed for Alpha-2B adrenergic receptor (Homo sapiens) (UniProt P18089)?
## Result 69

## Task For the record Nc1nc2c(c(N3CCNCC3)n1)CCC1=C2[C@@H]2CCCC[C@@H]2O1 , what value of inhibition is listed for Alpha-2B adrenergic receptor (Homo sapiens) (UniProt P18089)?
## Result 31.9

Source of measurements: ChEMBL document CHEMBL5442219
